Target: Adrenergic receptor alpha-2 (Rattus norvegicus, UniProt P22086+P19328+P22909)
Test: Antagonism of the clonidine-induced depression of twitch responses of rat isolated prostatic vas deferens.
Observation Type: pA2

1. COc1cc2nc(N(C)CCCCCCN(C)C(=O)c3ccc(CN4CCSC4)cc3)nc(N)c2cc1OC :: < 5
2. COc1cc2nc(N(C)CCCCCCN(C)C(=O)c3cccc(CN(C)C)c3)nc(N)c2cc1OC :: < 5
3. COc1cc2nc(N(C)CCCCCCN(C)C(=O)c3cccc(CCl)c3)nc(N)c2cc1OC :: < 5
4. COc1cc2nc(N(C)CCCCCCN(C)C(=O)c3ccccc3CN(C)C)nc(N)c2cc1OC :: < 5
5. COc1ccccc1N1CCN(CCN2C(=O)CC3(CCCC3)CC2=O)CC1 [BMY-7378] :: < 5
6. COc1cc2nc(N(C)CCSSCCN(C)C(=O)c3ccco3)nc(N)c2cc1OC :: < 5
7. COc1cc2nc(N(C)CCSSCCN(C)C(=O)c3ccc(CN(C)C)o3)nc(N)c2cc1OC :: < 5
8. COc1cc2nc(N(C)CCCCCCN(C)C(=O)c3ccc(CN(C)C)cc3)nc(N)c2cc1OC :: 5.12
9. COc1cc2nc(N(C)CCCCCCN(C)C(=O)c3ccc(CCl)cc3)nc(N)c2cc1OC :: 5.54
10. COc1cc2nc(N(C)CCCCCCN(C)C(=O)c3ccccc3CCl)nc(N)c2cc1OC :: 5.31
11. CNCCCCCCN(C)Cc1cccc(C(=O)N(C)CCCCCCN(C)c2nc(N)c3cc(OC)c(OC)cc3n2)c1 :: < 5
12. COc1cc2nc(N(C)CCCCCCN(C)C(=O)c3ccccc3)nc(N)c2cc1OC :: 6.52
